Cited source for all entries: paper PMC8725837

Observed IC50, system IGF-1R (Homo sapiens, UniProt P08069).
API: value field is a number in µM; no unit string.

>>> reported_value("Fc1ccc(-c2cc(OCCCN3CCOCC3)c3cc(Br)ccc3n2)cc1 [16d]")
2.23
>>> reported_value("Clc1ccc(-c2cc(OCCCn3ccnc3)c3cc4c(cc3n2)OCO4)cc1 [12a]")
5.37
>>> reported_value("COc1cc2nc(-c3ccc(C(F)(F)F)cc3)cc(OCCCn3ccnc3)c2cc1OC")
0.219
>>> reported_value("FC(F)(F)c1ccc(-c2cc(OCCCN3CCOCC3)c3cc4c(cc3n2)OCO4)cc1 [12d]")
0.453
>>> reported_value("FC(F)(F)c1ccc(-c2cc(OCCCNC3CCCCC3)c3ccccc3n2)cc1 [10b]")
5.74

**Query** GET IC50 | system: IGF-1R (Homo sapiens, UniProt P08069) | item: Clc1ccc(-c2cc(OCCCN3CCOCC3)c3cc(-c4ccco4)ccc3n2)cc1 [20f]
**Result** 3.53

**Query** GET IC50 | system: IGF-1R (Homo sapiens, UniProt P08069) | item: COc1ccc(-c2ccc3nc(-c4ccc(F)cc4)cc(OCCCN4CCOCC4)c3c2)cc1 [20d]
**Result** 0.0412

**Query** GET IC50 | system: IGF-1R (Homo sapiens, UniProt P08069) | item: `COc1cc2nc(-c3ccc(C(F)(F)F)cc3)cc(OCCCN3CCN(C)CC3)c2cc1OC`
**Result** 5.35

**Query** GET IC50 | system: IGF-1R (Homo sapiens, UniProt P08069) | item: Clc1ccc(-c2cc(OCCCn3ccnc3)c3cc(-c4ccco4)ccc3n2)cc1 [20e]
**Result** 3.01
